B1: RHOBTB2 (parent)
chain: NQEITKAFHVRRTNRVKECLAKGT

- Variants of: B1
- PROTOCOL_NOTES: protein stability index of a GFP-peptide fusion (GPS, HEK-293T) (PSI 1-6); higher = more stable;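 note: lentivirally expressed fusions sorted by FACS into six bins by GFP to DsRed ratio, PSI derived from sequencing read proportions per bin multiplied by bin number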
- CONDITION: c terminus: a fixed tail appended
Would you kindly list protein stability index for each of these variants?
Answers are plain numbers.

Previously resolved entries follow.
1. R15F    2.84
2. K6I    1.51
3. E18L    2.83

Respectfully, I request protein stability index for each entry included below.
1. H9D
2. N1T
3. A21D
4. E3C

Data returned:
1. 4.12
2. 1.57
3. 3.83
4. 2.31

Respectfully, I request protein stability index for each entry included below.
1. K17I
2. F8A
3. T24K
4. H9T
5. K17Y
6. E3V
7. G23Y

Data returned:
[1.75, 4.6, 3.88, 3.31, 2.36, 2.4, 2.26]
